Can you tell me AC50 for the items I'm about to list?
Target: 3',5'-cyclic-AMP phosphodiesterase 4D (Homo sapiens); also: assay procedure not described here
Sequence (Q08499 whole entry): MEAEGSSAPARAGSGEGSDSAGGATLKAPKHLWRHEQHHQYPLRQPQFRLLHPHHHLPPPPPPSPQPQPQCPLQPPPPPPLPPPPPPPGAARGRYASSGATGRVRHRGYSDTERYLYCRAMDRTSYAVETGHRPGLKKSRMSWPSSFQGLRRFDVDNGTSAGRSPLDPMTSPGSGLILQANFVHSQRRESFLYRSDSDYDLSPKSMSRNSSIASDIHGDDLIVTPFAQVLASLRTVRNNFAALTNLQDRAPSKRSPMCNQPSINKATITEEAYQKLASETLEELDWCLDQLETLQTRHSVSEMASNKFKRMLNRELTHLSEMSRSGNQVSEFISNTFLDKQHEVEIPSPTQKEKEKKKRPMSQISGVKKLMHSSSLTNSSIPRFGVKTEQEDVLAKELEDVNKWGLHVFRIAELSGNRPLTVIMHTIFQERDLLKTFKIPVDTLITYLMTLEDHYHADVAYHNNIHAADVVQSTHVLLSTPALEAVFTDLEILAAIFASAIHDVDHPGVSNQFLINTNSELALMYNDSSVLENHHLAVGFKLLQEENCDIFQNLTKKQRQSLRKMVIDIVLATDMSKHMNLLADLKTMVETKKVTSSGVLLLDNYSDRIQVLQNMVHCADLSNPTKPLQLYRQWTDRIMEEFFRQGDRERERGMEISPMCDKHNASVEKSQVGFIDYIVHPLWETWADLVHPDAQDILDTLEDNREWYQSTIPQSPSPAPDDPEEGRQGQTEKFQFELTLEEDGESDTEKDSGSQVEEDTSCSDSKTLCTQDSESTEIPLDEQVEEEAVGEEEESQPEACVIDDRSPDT
Assay type: functional
Please respond with the number in µM and leave the unit unwritten.

Query :: Would you mind telling me what AC50 value was observed for CN1C(=O)C(O)N=C(c2ccccc2Cl)c2cc(Cl)ccc21 (stereo not given) ?
Result :: 5.6

Query :: Now consider COc1cc(NC(C)CCCN)c2ncccc2c1 (stereo not given) and answer again.
Result :: 12

###

Target: Muscarinic acetylcholine receptor M2 (Homo sapiens, UniProt P08172); also: assay procedure not described here
Sequence (P08172 whole entry): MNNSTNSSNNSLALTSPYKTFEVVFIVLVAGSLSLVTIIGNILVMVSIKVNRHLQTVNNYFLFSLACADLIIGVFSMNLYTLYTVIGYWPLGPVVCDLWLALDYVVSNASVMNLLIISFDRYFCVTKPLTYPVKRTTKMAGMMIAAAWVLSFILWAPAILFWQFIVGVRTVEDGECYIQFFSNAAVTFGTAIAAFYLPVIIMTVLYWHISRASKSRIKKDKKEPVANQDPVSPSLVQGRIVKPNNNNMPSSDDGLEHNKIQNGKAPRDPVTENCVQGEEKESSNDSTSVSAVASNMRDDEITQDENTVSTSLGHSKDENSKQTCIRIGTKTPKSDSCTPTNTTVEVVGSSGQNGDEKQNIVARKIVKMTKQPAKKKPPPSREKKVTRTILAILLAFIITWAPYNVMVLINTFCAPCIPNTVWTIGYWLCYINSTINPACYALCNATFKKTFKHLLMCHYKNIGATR
Format: functional, cell-based
Quantity kind: AC50

Query :: // lookup AC50 | system=Muscarinic acetylcholine receptor M2 (Homo sapiens, UniProt P08172) | key= CC(C(=O)O)c1ccc(N2Cc3ccccc3C2=O)cc1 (stereo not drawn) [INDOPROFEN]; also: assay procedure not described here
Result :: > 30 µM

Query :: Same question for COC(=O)C1=C(C)NC(C)=C(C(=O)OC2CCCN(Cc3ccccc3)C2)C1c1cccc([N+](=O)[O-])c1 (stereo not drawn) [BENIDIPINE] please.
Result :: > 30 µM

Query :: Also need COc1cc2c(N)nc(N3CCN(C(=O)OCC(C)(C)O)CC3)nc2c(OC)c1OC [TRIMAZOSIN] , thanks.
Result :: > 30 µM

###

Target: Gamma-aminobutyric acid receptor subunit alpha-1 (Rattus norvegicus); also: assay procedure not described here
Sequence (P62813 whole entry): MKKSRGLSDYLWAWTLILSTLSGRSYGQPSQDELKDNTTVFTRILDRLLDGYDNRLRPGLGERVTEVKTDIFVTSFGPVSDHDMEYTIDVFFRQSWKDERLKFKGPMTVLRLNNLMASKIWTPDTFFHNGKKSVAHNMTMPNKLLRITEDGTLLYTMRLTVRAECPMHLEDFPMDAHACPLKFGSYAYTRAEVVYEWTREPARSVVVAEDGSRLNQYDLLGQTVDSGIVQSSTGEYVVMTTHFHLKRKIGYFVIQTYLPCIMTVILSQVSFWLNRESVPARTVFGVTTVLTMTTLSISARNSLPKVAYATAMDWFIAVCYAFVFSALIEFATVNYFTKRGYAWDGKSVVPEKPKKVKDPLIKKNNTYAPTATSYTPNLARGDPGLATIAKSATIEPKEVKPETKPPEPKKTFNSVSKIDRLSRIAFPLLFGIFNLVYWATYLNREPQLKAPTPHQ
Type: functional
Quantity kind: AC50

Query :: If you can, please state the reported AC50 value of `C#C[C@]1(O)CC[C@H]2[C@@H]3CCc4cc(OC5CCCC5)ccc4[C@H]3CC[C@@]21C` .
Result :: > 10 µM

Query :: Would you kindly repeat that for `O=C(O)CCCCCCNC1c2ccccc2CCc2ccccc21` ?
Result :: > 30 µM

Query :: Likewise for Clc1ccc(C(c2ccccc2Cl)C(Cl)Cl)cc1 (stereo not drawn) ?
Result :: > 10 µM

Query :: Follow-up entry: `CO[C@H]1C[C@@H]2CC[C@@H](C)[C@@](O)(O2)C(=O)C(=O)N2CCCC[C@H]2C(=O)O[C@H]([C@H](C)C[C@@H]2CC[C@@H](O)[C@H](OC)C2)CC(=O)[C@H](C)/C=C(\C)[C@@H](O)[C@@H](OC)C(=O)[C@H](C)C[C@H](C)/C=C/C=C/C=C/1C`
Result :: > 10 µM

Query :: Next: C[C@]12CCC(=O)C=C1CC[C@@H]1[C@@H]2[C@@H](O)C[C@@]2(C)[C@H]1CC[C@]2(O)C(=O)CO [HYDROCORTISONE]
Result :: > 10 µM

Query :: Subsequent entry: O=C(NCCN1CCOCC1)c1ccc(Cl)cc1 [MOCLOBEMIDE]
Result :: > 10 µM

Query :: Next compound: `CC(=O)O[C@H]1C[C@@H]2CC[C@@H]3[C@H](CC[C@@]4(C)[C@H]3C[C@H]([N+]3(C)CCCCC3)[C@@H]4OC(C)=O)[C@@]2(C)C[C@@H]1N1CCCCC1`
Result :: > 30 µM

Query :: Query `CN(C)CCc1c[nH]c2ccc(C[C@H]3COC(=O)N3)cc12` next
Result :: > 30 µM

Query :: What do we get for `C[C@@H](O)[C@H]1C(=O)N2C(C(=O)O)=C(S[C@@H]3CN[C@H](C(=O)N(C)C)C3)[C@H](C)[C@H]12` ?
Result :: > 10 µM

Query :: Lookup `O=C1Nc2ccc(Cl)cc2[C@@](C#CC2CC2)(C(F)(F)F)O1`
Result :: > 10 µM

Query :: Entry `CN1C(C(=O)Nc2ccccn2)=C(O)c2sc(Cl)cc2S1(=O)=O` please
Result :: > 10 µM

Query :: How about `CC(C)Cn1cnc2c(N)nc3ccccc3c21` ?
Result :: > 10 µM

Query :: Please do the same for `COc1ccc(CC(C)(C)NC[C@H](O)c2cc(O)cc3c2OCC(=O)N3)cc1` as well.
Result :: > 30 µM

###

Target: 5-hydroxytryptamine receptor 2B (Homo sapiens, UniProt P41595); also: assay procedure not described here
Sequence (P41595 whole entry): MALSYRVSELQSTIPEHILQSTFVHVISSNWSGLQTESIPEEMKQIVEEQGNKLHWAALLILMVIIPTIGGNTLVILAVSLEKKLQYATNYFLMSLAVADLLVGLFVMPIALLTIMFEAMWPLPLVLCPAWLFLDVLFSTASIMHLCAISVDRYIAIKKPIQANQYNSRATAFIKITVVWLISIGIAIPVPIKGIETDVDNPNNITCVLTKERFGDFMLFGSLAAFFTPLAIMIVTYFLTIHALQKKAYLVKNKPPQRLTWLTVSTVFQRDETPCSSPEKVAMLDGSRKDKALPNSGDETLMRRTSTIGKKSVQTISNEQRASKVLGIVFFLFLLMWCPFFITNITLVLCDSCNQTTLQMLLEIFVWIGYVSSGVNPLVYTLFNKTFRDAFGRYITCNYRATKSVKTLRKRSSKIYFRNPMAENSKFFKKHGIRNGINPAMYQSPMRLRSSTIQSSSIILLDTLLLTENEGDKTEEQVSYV
Assay type: functional, cell-based
Quantity kind: AC50

Query :: Return reported AC50; argument: O=C(O)C[C@H](O)C[C@H](O)/C=C/c1c(C2CC2)nc2ccccc2c1-c1ccc(F)cc1 [PITAVASTATIN]
Result :: > 10 µM

Query :: Note, next up: NC(=O)CN1CC(O)CC1=O (configuration not stated) [OXIRACETAM]
Result :: > 30 µM

Query :: What do we get for CCCN(CCC)C(=O)C(CCC(=O)O)NC(=O)c1ccccc1 (configuration not stated) [PROGLUMIDE] ?
Result :: > 10 µM

Query :: Thanks! And C[C@](N)(Cc1ccc(O)c(O)c1)C(=O)O [METHYLDOPA] ?
Result :: > 10 µM

Query :: And what about the compound C=CCC1(C(C)CC)C(=O)NC(=O)NC1=O (configuration not stated) [TALBUTAL] ?
Result :: > 10 µM

Query :: And CCN(CC)C(=O)N[C@H]1C[C@@H]2c3cccc4[nH]cc(c34)C[C@H]2N(C)C1 [TERGURIDE] ?
Result :: > 30 µM

Query :: Now this one: `CCOC(=O)[C@H](CCc1ccccc1)N[C@@H](C)C(=O)N1[C@H](C(=O)O)C[C@@H]2CCC[C@@H]21`
Result :: > 10 µM

Query :: // same read-out, input: CC(CC(c1ccccc1)c1ccccc1)NC(C)(C)C (configuration not stated) [TERODILINE]
Result :: > 30 µM

Query :: Next entry: O=C1C(O)=C([C@H]2CC[C@H](c3ccc(Cl)cc3)CC2)C(=O)c2ccccc21 [ATOVAQUONE]
Result :: > 30 µM

Query :: Same for CCC(C(=O)O)c1ccc(N2Cc3ccccc3C2=O)cc1 (configuration not stated) [INDOBUFEN]
Result :: > 30 µM

Query :: Repeat for the following compound: OC(CNCC(O)C1CCc2cc(F)ccc2O1)C1CCc2cc(F)ccc2O1 (configuration not stated) [NEBIVOLOL]
Result :: > 30 µM

Query :: Similarly, COc1cc2c(N)nc(N3CCN(C(=O)OCC(C)(C)O)CC3)nc2c(OC)c1OC [TRIMAZOSIN] ?
Result :: > 30 µM

###

Provide the reported AC50 of each item.
Biological target: D(1A) dopamine receptor (Homo sapiens, UniProt P21728); also: assay procedure not described here
Sequence (P21728 whole entry): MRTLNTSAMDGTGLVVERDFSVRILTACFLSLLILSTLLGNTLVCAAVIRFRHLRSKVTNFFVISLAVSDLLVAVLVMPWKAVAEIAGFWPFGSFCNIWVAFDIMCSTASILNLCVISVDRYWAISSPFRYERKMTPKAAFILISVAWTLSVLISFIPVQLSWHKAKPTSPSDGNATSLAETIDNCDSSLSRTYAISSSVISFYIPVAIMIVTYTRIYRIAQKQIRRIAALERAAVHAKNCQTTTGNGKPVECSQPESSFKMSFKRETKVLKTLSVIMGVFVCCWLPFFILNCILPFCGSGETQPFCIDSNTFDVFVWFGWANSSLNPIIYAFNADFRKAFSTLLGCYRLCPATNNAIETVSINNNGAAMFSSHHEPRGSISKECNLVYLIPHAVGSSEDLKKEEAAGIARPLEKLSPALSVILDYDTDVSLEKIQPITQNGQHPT

Query :: Sample C[S+](CC[C@H](N)C(=O)[O-])C[C@H]1O[C@@H](n2cnc3c(N)ncnc32)[C@H](O)[C@@H]1O (stereo not given in full) [ADEMETIONINE] — what was its AC50?
Result :: > 30 µM

Query :: Repeat with C=C[C@H]1C[N@@]2CC[C@H]1C[C@H]2[C@H](O)c1ccnc2ccc(OC)cc12 [QUININE]
Result :: > 30 µM

Query :: Request: O=c1[nH]c(=O)n([C@H]2C[C@H](O)[C@@H](CO)O2)cc1I [IDOXURIDINE]
Result :: > 30 µM

Query :: Can you check C=CCCCCCCCCC(=O)O [UNDECYLENIC ACID] next?
Result :: > 30 µM

Query :: Field entry: CCCCCCOc1nsnc1C1=CCCN(C)C1 [XANOMELINE]
Result :: 1.22 µM

Query :: Next record, please: O=[N+]([O-])c1cn2c(n1)OC[C@@H](OCc1ccc(OC(F)(F)F)cc1)C2 [PRETOMANID]
Result :: > 30 µM

Query :: Likewise for CC[C@H]1OC(=O)[C@H](C)[C@@H](O[C@H]2C[C@@](C)(OC)[C@@H](O)[C@H](C)O2)[C@H](C)[C@@H](O[C@@H]2O[C@H](C)C[C@H](N(C)C)[C@H]2O)[C@](C)(O)C[C@@H](C)CN(C)[C@H](C)[C@@H](O)[C@]1(C)O [AZITHROMYCIN] ?
Result :: > 30 µM

Query :: Also Clc1ccc(C(OCCN2CCCCC2)c2ccccc2)cc1 (stereo not given) [CLOPERASTINE] , if possible.
Result :: 5.96 µM

Query :: Please give the result for CC(=O)Oc1ccc2c(c1)CC[C@@H]1[C@@H]2CC[C@]2(C)[C@@H](O)CC[C@@H]12 [ESTRADIOL ACETATE] too.
Result :: > 30 µM

Query :: Further, for `CC(=O)Oc1c(C)c(C)c2c(c1C)CC[C@@](C)(CCC[C@H](C)CCC[C@H](C)CCCC(C)C)O2` ?
Result :: > 30 µM

Query :: Next record, please: CC[C@H]1CN2CCc3cc(OC)c(OC)cc3[C@@H]2C[C@@H]1C[C@H]1NCCc2cc(OC)c(OC)cc21 [EMETINE]
Result :: 15.7 µM

Query :: Also need CC(C)(S)[C@@H](N)C(=O)O [PENICILLAMINE] , thanks.
Result :: > 30 µM

Query :: Entry O=[N+]([O-])O[C@@H]1CO[C@H]2[C@@H]1OC[C@@H]2O [ISOSORBIDE MONONITRATE] please
Result :: > 30 µM

Query :: Another compound: CC(=O)N[C@@H]1[C@@H](O)[C@H](O)[C@@H](CO)O[C@H]1O [N-ACETYLGLUCOSAMINE]
Result :: > 30 µM

Query :: Another compound to check: OC(CCN1CCCCC1)(c1ccccc1)c1ccccc1 [PRIDINOL]
Result :: > 30 µM

Query :: Entry CN(C)[C@@H](c1cccc(O)c1)[C@H]1CCCC[C@H]1O [CIRAMADOL] please
Result :: > 30 µM

Query :: What about this compound? N[C@@H](C(=O)N[C@@H]1C(=O)N2C(C(=O)O)=C(Cl)CC[C@H]12)c1ccccc1 [LORACARBEF ANHYDROUS]
Result :: > 30 µM

Query :: Same question for CCCCOC(=O)C(=O)[C@H]1[C@H](C)C[C@H]2[C@@H]3C[C@H](F)C4=CC(=O)C=C[C@]4(C)[C@H]3[C@@H](O)C[C@@]21C [FLUOCORTIN BUTYL] please.
Result :: > 30 µM

Query :: Note, next up: CS(=O)(=O)c1ccc(C2=C(c3ccccc3)C(=O)OC2)cc1 [ROFECOXIB]
Result :: > 30 µM

Query :: // repeat for COCCCN1CCC(NC(=O)c2cc(Cl)c(N)c3c2OCC3)CC1 [PRUCALOPRIDE] and report
Result :: > 30 µM

Query :: Here is the next compound: CCOC(=O)/C=C1\SC(N2CCCCC2)C(=O)N1C (stereo not given) [ETOZOLIN]
Result :: > 30 µM

Query :: Could you do the same for O=c1[nH]c(=O)n(C2CCCO2)cc1F (stereo not given) [TEGAFUR] , please?
Result :: > 30 µM

Query :: # iterate: CCN(CC)CCOC(=O)C(c1ccccc1)C1CCCCC1 (stereo not given) [DROFENINE]
Result :: 13.7 µM

Query :: What would you report for CCN(CC)CCNc1ccc(CO)c2sc3ccccc3c(=O)c12 [HYCANTHONE] ?
Result :: > 30 µM

Query :: For CC[C@]1(O)C[C@H]2CN(CCc3c([nH]c4ccccc34)[C@@](C(=O)OC)(c3cc4c(cc3OC)N(C=O)[C@H]3[C@@](O)(C(=O)OC)[C@H](OC(C)=O)[C@]5(CC)C=CCN6CC[C@]43[C@@H]65)C2)C1 [VINCRISTINE] then?
Result :: > 30 µM
